B1: OR3A1 (parent)
chain: PMYFFLGNLSVLDVGCISVTVPSM

Variants of: B1
Test: protein stability index of a GFP-peptide fusion (GPS, HEK-293T) (PSI 1-6); higher = more stable;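 also: lentivirally expressed fusions sorted by FACS into six bins by GFP to DsRed ratio, PSI derived from sequencing read proportions per bin multiplied by bin number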
Conditions: c terminus: a fixed tail appended
Output Yes for protein stability index not less than 3; output No otherwise.

For orientation, consider the following solved cases.
• S10L = No
• C16P = No
• Y3V = Yes
• N8W = Yes
• V21T = No

Task: Given the entry P1H , answer whether its protein stability index meets or surpasses 3.
Output: No

Task: Check if protein stability index >= 3 (inclusive). Item: G7Y
Output: No

Task: hey, is protein stability index for this one >= 3? V14Y
Output: Yes

Task: // inclusive: protein stability index at least 3? input: V11Q
Output: No

Task: Identify whether the reported protein stability index of the following variant is 3 or greater: V21F
Output: No

Task: Can G15I be said to have protein stability index at or above 3?
Output: No

Task: Would you say P22F shows protein stability index at minimum 3?
Output: No

Task: Textbook exercise: given the entry L12E , state whether its protein stability index is greater than or equal to 3.
Output: No

Task: Is protein stability index at least 3? Consider G15T
Output: No

Task: Textbook exercise: given the entry S10M , state whether its protein stability index is greater than or equal to 3.
Output: Yes

Task: Say whether C16Y shows protein stability index of 3 or more.
Output: No

Task: Could you verify whether the entry V14T shows protein stability index of no less than 3?
Output: Yes

Task: Please indicate if the recorded protein stability index for T20F meets or exceeds 3.
Output: No

Task: Determine whether this variant has protein stability index no lower than 3: V21C
Output: Yes

Task: For this variant, is measured protein stability index 3 or higher? D13L
Output: Yes

Task: API: above_or_equal(metric=protein stability index, cutoff=3) for item G7K
Output: No

Task: Quick check, protein stability index >= 3? V19A
Output: No

Task: Please tell me: is the variant L9C at or over 3 in terms of protein stability index?
Output: Yes

Task: Has L12A a recorded protein stability index greater than or equal to 3?
Output: No

Task: Record C16N ; criterion: protein stability index no lower than 3. Met?
Output: No

Task: # check: protein stability index of P22K is greater than or equal to 3
Output: Yes

Task: Check the entry M24Y : does protein stability index equal or exceed 3?
Output: No

Task: Is it the case that V19E has protein stability index reaching or exceeding 3?
Output: No

Task: Check if protein stability index >= 3 (inclusive). Item: V11G
Output: No

These entries and their values trace back to the supplement of paper PMC10567573.
